biological target: human nicotinic acetylcholine receptor subtype a4b2 (Homo sapiens, UniProt P17787+P43681); construct: expressed in transfected cells; assay: Characterization of hα4β2 positive allosteric modulators using FLIPR; format: cell-based; settings: shift of nicotine pEC50 in presence of 10 μM test compound; HEK-293 cells stably expressing hα4β2; fluo-4 calcium FLIPR
Sequence (P43681 29-627 limits assumed): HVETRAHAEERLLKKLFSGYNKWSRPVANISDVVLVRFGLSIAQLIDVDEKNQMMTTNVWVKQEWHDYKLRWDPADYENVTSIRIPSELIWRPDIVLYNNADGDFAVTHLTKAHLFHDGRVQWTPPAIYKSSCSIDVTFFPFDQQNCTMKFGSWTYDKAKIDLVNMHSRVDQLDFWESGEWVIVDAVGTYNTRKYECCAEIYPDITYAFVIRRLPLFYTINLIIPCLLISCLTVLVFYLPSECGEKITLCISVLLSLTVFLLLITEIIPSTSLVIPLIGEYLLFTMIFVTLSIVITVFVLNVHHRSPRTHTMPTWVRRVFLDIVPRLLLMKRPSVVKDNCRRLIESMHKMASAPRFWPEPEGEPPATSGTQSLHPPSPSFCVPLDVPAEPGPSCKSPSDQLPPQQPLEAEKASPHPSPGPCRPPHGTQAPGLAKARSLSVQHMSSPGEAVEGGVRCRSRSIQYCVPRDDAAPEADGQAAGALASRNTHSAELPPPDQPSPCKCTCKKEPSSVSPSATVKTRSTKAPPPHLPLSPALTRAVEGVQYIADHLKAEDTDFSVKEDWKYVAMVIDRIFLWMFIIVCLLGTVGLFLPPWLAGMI
Sequence (P17787 26-502): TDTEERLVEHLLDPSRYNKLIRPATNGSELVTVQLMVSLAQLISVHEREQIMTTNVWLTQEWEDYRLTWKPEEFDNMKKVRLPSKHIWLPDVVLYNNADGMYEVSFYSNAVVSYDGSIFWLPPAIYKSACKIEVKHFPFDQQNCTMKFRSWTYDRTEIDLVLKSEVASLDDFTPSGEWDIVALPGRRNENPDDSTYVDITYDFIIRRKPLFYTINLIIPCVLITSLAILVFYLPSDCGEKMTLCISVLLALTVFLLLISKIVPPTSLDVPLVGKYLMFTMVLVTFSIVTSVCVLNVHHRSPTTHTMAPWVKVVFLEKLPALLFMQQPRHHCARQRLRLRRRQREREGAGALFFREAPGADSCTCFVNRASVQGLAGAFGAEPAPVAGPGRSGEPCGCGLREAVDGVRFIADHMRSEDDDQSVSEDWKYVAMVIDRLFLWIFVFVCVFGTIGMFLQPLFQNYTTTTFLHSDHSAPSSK
Measured Quantity: ΔpEC50

>>> numeric_readout("Fc1cncc(-n2nnc(-c3ccc(F)nc3)n2)c1 [Compound B12]")
1.6
>>> numeric_readout("Fc1ccc(-n2nnc(-c3cccnc3F)n2)cn1 [Compound B24]")
1.6

[a] Cc1ncccc1-n1nnc(-c2cccnc2)n1 [Compound B7]
[b] Fc1cncc(-c2nnn(-c3cccnc3)n2)c1 [Compound B16]
[c] Brc1cncc(-n2nnc(-c3cccnc3)n2)c1 [Compound B2]
input: Put the items in order so that reported ΔpEC50 rises from first to last. Answer format: the labels, in the requested order.
output: a, c, b
(a: 0.11, c: 0.55, b: 1.7)

* * *

biological target: human nicotinic acetylcholine receptor subtype a4b2 (Homo sapiens, UniProt P17787+P43681); construct: expressed in transfected cells; test: Characterization of hα4β2 positive allosteric modulators using FLIPR; assay type: cell-based; details: shift of nicotine pEC50 in presence of 10 μM test compound; HEK-293 cells stably expressing hα4β2; fluo-4 calcium FLIPR
Measured Quantity: ΔpEC50

Please review the entries below; each comes with its answer.
>>> numeric_readout("Clc1ccc(-n2nnc(-c3cccnc3)n2)cn1 [Compound B17]")
2.0
>>> numeric_readout("O=C(O)/C=C/C(=O)O.c1cncc(-c2nnn(-c3cccnc3)n2)c1 [Compound B1]")
1.8
>>> numeric_readout("Fc1ccc(-n2nnc(-c3cccnc3)n2)cn1 [Compound B9]")
1.9
>>> numeric_readout("Fc1cncc(-n2nnc(-c3ccc(Cl)nc3)n2)c1 [Compound B20]")
0.74
>>> numeric_readout("Fc1cncc(-c2nnn(-c3ccc(Cl)nc3)n2)c1 [Compound B19]")
1.6

[P] Cc1ncccc1-c1nnn(-c2cccnc2)n1 [Compound B8]
[Q] Fc1cncc(-c2nnn(-c3ccc(F)nc3)n2)c1 [Compound B11]
input: Could you kindly indicate whether P or Q has the higher ΔpEC50 value? Give the chosen item's label as your response.
output: Q
(Q: 1.4, P: −0.29)

[1] Fc1ccc(-n2nnc(-c3cncc(I)c3)n2)cn1 [Compound B25]
[2] Cc1cncc(-n2nnc(-c3cccnc3)n2)c1 [Compound B6]
[3] Clc1ccc(-c2nnn(-c3cccnc3)n2)cn1 [Compound B13]
input: // sort entries: ΔpEC50, high to low Answer format: the labels, in the requested order.
output: 3, 1, 2
(3: 1.8, 1: 0.58, 2: 0.16)

* * *

target: human nicotinic acetylcholine receptor subtype a4b2 (Homo sapiens, UniProt P17787+P43681); construct: expressed in transfected cells; experiment: Characterization of hα4β2 positive allosteric modulators using FLIPR; type: cell-based; details: shift of nicotine pEC50 in presence of 10 μM test compound; HEK-293 cells stably expressing hα4β2; fluo-4 calcium FLIPR
Measured Quantity: ΔpEC50

Please review the entries below; each comes with its answer.
>>> numeric_readout("COc1cncc(-n2nnc(-c3cccnc3)n2)c1 [Compound B3]")
"−0.16"
>>> numeric_readout("Cc1ccc(-c2nnn(-c3cccnc3)n2)cn1 [Compound B4]")
1.0
>>> numeric_readout("Clc1cncc(-c2nnn(-c3cccnc3)n2)c1 [Compound B15]")
1.7
>>> numeric_readout("Clc1cncc(-n2nnc(-c3cccnc3)n2)c1 [Compound B21]")
0.8

[P] Fc1cncc(-n2nnc(-c3cncc(Cl)c3)n2)c1 [Compound B22]
[Q] Cc1ccc(-n2nnc(-c3cccnc3)n2)cn1 [Compound B5]
input: Please choose the item with the lower ΔpEC50 value from this pair: P and Q Give the chosen item's label as your response.
output: P

* * *

target: human nicotinic acetylcholine receptor subtype a4b2 (Homo sapiens, UniProt P17787+P43681); construct: expressed in transfected cells; assay: Characterization of hα4β2 positive allosteric modulators using FLIPR; format: cell-based; settings: shift of nicotine pEC50 in presence of 10 μM test compound; HEK-293 cells stably expressing hα4β2; fluo-4 calcium FLIPR
Measured Quantity: ΔpEC50

>>> numeric_readout("Brc1cncc(-c2nnn(-c3cccnc3)n2)c1")
1.5
>>> numeric_readout("Fc1cncc(-c2nnn(-c3cncc(F)c3)n2)c1")
1.3
>>> numeric_readout("Fc1cncc(-n2nnc(-c3cccnc3)n2)c1")
1.5
>>> numeric_readout("Fc1ccc(-n2nnc(-c3cncc(Cl)c3)n2)cn1")
1.5
>>> numeric_readout("Fc1ccc(-c2nnn(-c3cccnc3)n2)cn1")
1.5
